Test system: HepG2 cells
test_details: MTT cytotoxicity / synergy assay, 72 h, HepG2
run_conditions: Homo sapiens, HepG2, 72 h, read-out: IC50 Value in Specific Cell Line, HepG2
Decision: IC50 beneath 70 µM gives Condition met; IC50 meeting or exceeding 70 µM gives Condition not met.

>  <molecule>
Cc1cnc(C(=O)NCCc2ccc(S(=O)(=O)NC(=O)NC3CCCCC3)cc2)cn1 [GLIP, Glipizide]

>  <assayed_target>
HepG2 cells

>  <class_label>
Condition not met

$$$$
>  <molecule>
COc1ccc2c(c1)C(=O)N(CCc1ccc(S(=O)(=O)NC(=O)NC3CCCCC3)cc1)C(=O)C2(C)C [GLIQ, Gliquidone]

>  <assayed_target>
HepG2 cells

>  <class_label>
Condition met

$$$$
>  <molecule>
CCCCNC(=O)NS(=O)(=O)c1ccc(C)cc1 [TOLB, Tolbutamide]

>  <assayed_target>
HepG2 cells

>  <class_label>
Condition not met

$$$$
>  <molecule>
COc1cccc2c1C(=O)c1c(O)c3c(c(O)c1C2=O)C[C@@](O)(C(=O)CO)C[C@@H]3O[C@H]1C[C@H](N)[C@H](O)[C@H](C)O1 [DOXO, Doxorubicin]

>  <assayed_target>
HepG2 cells

>  <class_label>
Condition met

$$$$

Next:
I wonder whether Cc1ccc(S(=O)(=O)NC(=O)NN2CCCCCC2)cc1 [TOLA, Tolazamide] has IC50 below 70 µM. Can you tell?
Condition not met

###

test_details: MTT cytotoxicity / synergy assay, 72 h, MCF-7
Assay type: cell-based, human
run_conditions: human, MCF-7 cells, 0.05% Tween-80; read-out: MCF-7 viability with 0.05% Tween-80
readout: viability at 72 h (%)
Give your result in % as a bare value.

For the molecule shown here, CCC1=C(C)CN(C(=O)NCCc2ccc(S(=O)(=O)NC(=O)N[C@H]3CC[C@H](C)CC3)cc2)C1=O [GLIM, Glimepiride] , give the reported viability at 72 h.
71.2

###

Tested on: MCF-7 cells
test_details: MTT cytotoxicity / synergy assay, 72 h, MCF-7
Assay type: cell-based, human
run_conditions: Homo sapiens, MCF7; MTT, 72 h; n.d. = IC50 not achieved within concentrations tested; read-out: IC50 Value in Specific Cell Line, MCF-7
Procedure: Stock solutions of the tested compounds were first prepared in DMSO at 200-fold the intended final concentration. […] The cells were treated for 72 h under the same conditions. Following treatment, 25 μL of MTT solution was added to each well, and the plates were incubated for 2 h at 37 °C. […] All data from this preliminary cytotoxic assay were analyzed by ANOVA followed by Tukey’s post hoc test for multiple comparisons, with significance set at p < 0.05. […]
readout: IC50 (µM)
Give your result in µM as a bare value.

Observe how each entry below is paired with its result.
>  <compound>
COc1ccc2c(c1)C(=O)N(CCc1ccc(S(=O)(=O)NC(=O)NC3CCCCC3)cc1)C(=O)C2(C)C [GLIQ, Gliquidone]

>  <readout>
IC50

>  <value>
68.8

$$$$
>  <compound>
Cc1cnc(C(=O)NCCc2ccc(S(=O)(=O)NC(=O)NC3CCCCC3)cc2)cn1 [GLIP, Glipizide]

>  <readout>
IC50

>  <value>
339

$$$$
>  <compound>
COc1cccc2c1C(=O)c1c(O)c3c(c(O)c1C2=O)C[C@@](O)(C(=O)CO)C[C@@H]3O[C@H]1C[C@H](N)[C@H](O)[C@H](C)O1 [DOXO, Doxorubicin]

>  <readout>
IC50

>  <value>
0.46

$$$$

Moving on to the next compound.
For the compound shown here, CCCCNC(=O)NS(=O)(=O)c1ccc(C)cc1 [TOLB, Tolbutamide] , give the reported IC50.
461

All values here come from paper PMC11855866.
